- PROTOCOL_DESCRIPTION: log P determination
- Format: physicochemical
- CONDITION_CONTEXT: values printed without asterisk; EEC Directive 79/831 Annex V. A8, HPLC gradient method, acetonitrile/0.1% aqueous phosphoric acid (general footnote)
The reader will find reported log p values listed item by item below.

| COMPOUND | log p |
| --- | --- |
| CC(C)[C@@H](C)Nc1c(-c2ccc(F)cc2Cl)c(Cl)nc2c(C(=O)NS(C)(=O)=O)cnn12 [Example 183] | 4.18 |
| C[C@@H](Nc1c(-c2ccc(F)cc2Cl)c(Cl)nc2c(C(=O)NS(=O)(=O)C(F)(F)F)cnn12)C(C)(C)C [Example 14] | 3.77 |
| C[C@@H](Nc1c(-c2c(F)cc(F)cc2Cl)c(Cl)nc2c(C(=O)NS(C)(=O)=O)cnn12)C(C)(C)C [Example 33] | 4.38 |
| C[C@@H](Nc1c(-c2ccc(Cl)cc2Cl)c(Cl)nc2c(C(=O)NS(=O)(=O)C(F)(F)F)cnn12)C(C)(C)C [Example 38] | 3.93 |
| C[C@@H](Nc1c(-c2ccc(F)cc2Cl)c(Cl)nc2c(C(=O)NS(C)(=O)=O)cnn12)C(C)(C)C [Example 15] | 4.44 |
| C[C@@H](Nc1c(-c2c(F)cc(F)cc2F)c(Cl)nc2c(C(=O)NS(C)(=O)=O)cnn12)C(C)(C)C [Example 9] | 4.16 |
| C[C@H](Nc1c(-c2ccc(Cl)cc2Cl)c(Cl)nc2c(C(=O)NS(C)(=O)=O)cnn12)C(F)(F)F [Example 123] | 3.99 |
